Taken from ChEMBL document CHEMBL1140016.

Reported Ki for target or system Beta-2 adrenergic receptor (Homo sapiens), by entry.
Give the quantity in nM, number only.

# input compound: COc1ccc([C@@H](Cc2ccccc2)NC[C@@H](O)Cc2ccc(O)c(NS(C)(=O)=O)c2)cc1O ; wanted: its Ki 1070

Follow-up item: COc1cccc([C@H](CCc2ccccc2)NC[C@H](O)Cc2ccc(O)c(NS(C)(=O)=O)c2)c1 200

Input COc1ccc([C@@H](Cc2ccccc2)NC[C@@H](O)Cc2ccc(O)c(NS(C)(=O)=O)c2)cc1OC 66

What do you have for COc1ccc([C@@H](Cc2ccccc2)NC[C@@H](O)Cc2ccc(O)c(NS(C)(=O)=O)c2)cc1 ? 510

====

What Ki was measured for each of the following?
Target: Beta-2 adrenergic receptor (Homo sapiens)
Number first, unit second: that is the form wanted.

Bench note: what Ki did COc1ccc([C@@H](Cc2ccccc2)NC[C@H](O)Cc2ccc(O)c(NS(C)(=O)=O)c2)cc1OC show? 1.5 µM

Follow-up entry: CS(=O)(=O)Nc1cc(C[C@H](O)CN[C@H](Cc2ccccc2)c2ccc(OC(F)F)c(OC(F)F)c2)ccc1O 0.102 µM

What do you get for COc1ccc([C@H](Cc2ccccc2)NC[C@H](O)Cc2ccc(O)c(NS(C)(=O)=O)c2)cc1OC ? 0.82 µM

Item: COc1ccc([C@@H](Cc2ccccc2)NC[C@H](O)Cc2ccc(O)c(NS(C)(=O)=O)c2)cc1 3.1 µM

====

// each record: one item and its pKi for Beta-3 adrenergic receptor (Homo sapiens, UniProt P13945)
Schema: pKi number; meaning minus log10 of the concentration expressed in molar units.

Name the recorded pKi for CS(=O)(=O)Nc1cc(OC[C@@H](O)CN)ccc1O . 4.82

And for COc1ccc([C@@H](Cc2ccccc2)NC[C@H](O)Cc2ccc(O)c(NS(C)(=O)=O)c2)cc1OC ? 7.60

Next record, please: CS(=O)(=O)Nc1cc(C[C@H](O)CN[C@H](Cc2ccccc2)c2ccc(OC(F)F)c(OC(F)F)c2)ccc1O 7.72

Next compound: COc1ccc([C@H](CCc2cccc(Cl)c2)NC[C@H](O)Cc2ccc(O)c(NS(C)(=O)=O)c2)cc1OC 7.54

Queued: COc1ccc(C(NC[C@H](O)c2ccc(O)c(NS(C)(=O)=O)c2F)c2ccc(OC)cc2)cc1 5.77

# repeat for COc1ccc([C@H](CCc2ccc(Cl)cc2)NC[C@H](O)Cc2ccc(O)c(NS(C)(=O)=O)c2)cc1OC 7.92

Continue with COc1cccc([C@@H](Cc2ccccc2)NC[C@H](O)Cc2ccc(O)c(NS(C)(=O)=O)c2)c1 5.96

Now try CS(=O)(=O)Nc1cc(C[C@@H](O)CN[C@@H](CCc2ccccc2)c2ccc(OC(F)F)c(OC(F)F)c2)ccc1O . 7.23

====

Target: Beta-1 adrenergic receptor (Homo sapiens, UniProt P08588)
Sequence (P08588 whole entry): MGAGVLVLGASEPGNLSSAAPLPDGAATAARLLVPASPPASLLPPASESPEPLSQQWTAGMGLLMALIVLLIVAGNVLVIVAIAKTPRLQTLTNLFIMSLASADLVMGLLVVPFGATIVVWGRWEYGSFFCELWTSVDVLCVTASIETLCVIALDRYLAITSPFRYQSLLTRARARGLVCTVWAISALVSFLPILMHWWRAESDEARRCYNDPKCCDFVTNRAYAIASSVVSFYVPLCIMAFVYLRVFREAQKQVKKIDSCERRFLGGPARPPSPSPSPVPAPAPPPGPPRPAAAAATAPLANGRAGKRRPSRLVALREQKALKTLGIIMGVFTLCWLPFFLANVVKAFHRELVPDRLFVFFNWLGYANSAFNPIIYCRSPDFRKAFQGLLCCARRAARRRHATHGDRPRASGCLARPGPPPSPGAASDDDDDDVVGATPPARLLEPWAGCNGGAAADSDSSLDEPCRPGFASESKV
Field 'label' (enum: Condition met / Condition not met). Set to Condition met when Ki is strictly under 1 µM; else Condition not met.

Is it true that Ki reported for COc1ccc([C@H](Cc2ccccc2)NC[C@H](O)Cc2ccc(O)c(NS(C)(=O)=O)c2)cc1OC is less than 1 µM? Condition not met

Do the same for COc1ccc([C@H](Cc2ccccc2)NC[C@@H](O)Cc2ccc(O)c(NS(C)(=O)=O)c2)cc1OC please Condition met

Also check COc1ccc([C@@H](Cc2ccccc2)NC[C@H](O)Cc2ccc(O)c(NS(C)(=O)=O)c2)cc1OC Condition not met

And for COc1ccc([C@@H](Cc2ccccc2)NC[C@@H](O)Cc2ccc(O)c(NS(C)(=O)=O)c2)cc1OC ? Condition not met

Now consider COc1ccc([C@H](CCc2ccccc2Cl)NC[C@H](O)Cc2ccc(O)c(NS(C)(=O)=O)c2)cc1OC . Condition met

Try this molecule next: COc1ccc([C@H](CCc2ccc(Cl)cc2)NC[C@H](O)Cc2ccc(O)c(NS(C)(=O)=O)c2)cc1OC Condition not met

Next record, please: CS(=O)(=O)Nc1cc(C[C@H](O)CN[C@H](Cc2ccccc2)c2ccc(Cl)c(Cl)c2)ccc1O Condition not met

One more molecule: COc1cccc([C@@H](Cc2ccccc2)NC[C@H](O)Cc2ccc(O)c(NS(C)(=O)=O)c2)c1 Condition not met

====

Would you mind telling me the reported Ki of each entry?
Target: Beta-2 adrenergic receptor (Homo sapiens, UniProt P07550)
Sequence (P07550 whole entry): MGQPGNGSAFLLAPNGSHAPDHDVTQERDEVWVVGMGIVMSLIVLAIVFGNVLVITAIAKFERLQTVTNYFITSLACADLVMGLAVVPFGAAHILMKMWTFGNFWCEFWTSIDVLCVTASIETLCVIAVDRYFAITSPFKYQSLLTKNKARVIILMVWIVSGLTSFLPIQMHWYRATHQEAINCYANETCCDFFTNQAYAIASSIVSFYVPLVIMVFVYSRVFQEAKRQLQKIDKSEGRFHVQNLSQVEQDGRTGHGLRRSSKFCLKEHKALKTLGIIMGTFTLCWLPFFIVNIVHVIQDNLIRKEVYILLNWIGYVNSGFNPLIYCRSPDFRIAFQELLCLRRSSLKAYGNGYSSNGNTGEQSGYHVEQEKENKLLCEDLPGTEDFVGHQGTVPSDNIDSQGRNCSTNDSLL

Could you share which Ki value was measured for CS(=O)(=O)Nc1cc(C[C@@H](O)CN[C@@H](CCc2ccccc2)c2ccc(OC(F)F)c(OC(F)F)c2)ccc1O ? 71 nM

For COc1ccc([C@H](CCc2cccc(Cl)c2)NC[C@H](O)Cc2ccc(O)c(NS(C)(=O)=O)c2)cc1OC then? 26 nM

Try COc1ccc([C@H](Cc2ccccc2)NC[C@@H](O)Cc2ccc(O)c(NS(C)(=O)=O)c2)cc1OC next. 24 nM

Here is the next compound: COc1cccc([C@@H](Cc2ccccc2)NC[C@@H](O)Cc2ccc(O)c(NS(C)(=O)=O)c2)c1 350 nM

====

Species: Homo sapiens
Experiment: Selectivity ratio of Ki for adrenergic beta2 receptor Ki for adrenergic beta-3 receptor
Ratio Ki vs 0.6: less than gives criterion met; not less than gives criterion not met.

Given COc1ccc([C@@H](Cc2ccc(Cl)cc2)NC[C@@H](O)Cc2ccc(O)c(NS(C)(=O)=O)c2)cc1OC , is recorded Ratio Ki strictly lower than 0.6? criterion not met

Request: COc1ccc([C@@H](Cc2ccccc2)NC[C@H](O)CCc2ccc(O)c(NS(C)(=O)=O)c2)cc1OC criterion not met

Moving on to COc1ccc([C@H](CCc2cccc(Cl)c2)NC[C@H](O)Cc2ccc(O)c(NS(C)(=O)=O)c2)cc1OC criterion not met

Try the compound CS(=O)(=O)Nc1cc(C[C@@H](O)CN[C@@H](CCc2ccccc2)c2ccc(OC(F)F)c(OC(F)F)c2)ccc1O criterion not met

Now consider COc1ccc(CNCC(O)Cc2ccc(O)c(NS(C)(=O)=O)c2)cc1 (stereo not drawn) . criterion met

Now this one: CS(=O)(=O)Nc1cc(CC[C@@H](O)CN[C@H](Cc2ccccc2)c2ccc(OC(F)F)cc2)ccc1O criterion not met

And the next one, COc1ccc(CNC[C@H](O)COc2ccc(O)c(NS(C)(=O)=O)c2)cc1 ? criterion met

====

Could you please report measured Ratio Ki for the items listed next?
Species: Homo sapiens
Assay: Selectivity ratio of Ki for adrenergic beta2 receptor Ki for adrenergic beta-3 receptor
Keep it simple and answer with nothing but the number.

Which Ratio Ki reading was recorded for the compound COc1ccc([C@@H](Cc2ccccc2Cl)NC[C@@H](O)Cc2ccc(O)c(NS(C)(=O)=O)c2)cc1OC ? 13

Can you handle COc1ccc([C@@H](Cc2cccc(Cl)c2)NC[C@@H](O)Cc2ccc(O)c(NS(C)(=O)=O)c2)cc1OC next? 13

Here is the next compound: CS(=O)(=O)Nc1cc(OC[C@@H](O)CN)ccc1O 0.04

How about CS(=O)(=O)Nc1cc(OC[C@@H](O)CN[C@H](Cc2ccccc2)c2ccc(OC(F)F)cc2)ccc1O ? 7

Please do the same for COc1ccc([C@H](CCc2ccccc2)NC[C@H](O)Cc2ccc(O)c(NS(C)(=O)=O)c2)cc1OC as well. 43

Do the same for COc1ccc(CC(Cc2ccc(OC)c(OC)c2)NC[C@@H](O)Cc2ccc(O)c(NS(C)(=O)=O)c2)cc1OC please 0.2

Can you check COc1ccc([C@H](CCc2ccc(Cl)cc2)NC[C@H](O)Cc2ccc(O)c(NS(C)(=O)=O)c2)cc1OC next? 10

Continue with COc1ccc(CNC[C@H](O)CCc2ccc(O)c(NS(C)(=O)=O)c2)cc1 1

Try the compound COc1ccc([C@H](CCc2ccccc2)NC[C@H](O)Cc2ccc(O)c(NS(C)(=O)=O)c2)cc1 9

Next compound up: COc1ccc(CCNCC(O)Cc2ccc(O)c(NS(C)(=O)=O)c2)cc1OC (stereo not drawn) 0.1

Record: COc1ccc([C@@H](Cc2ccccc2)NC[C@H](O)COc2ccc(O)c(NS(C)(=O)=O)c2)cc1OC 15

Another compound to check: COc1cccc([C@H](CCc2ccccc2)NC[C@H](O)Cc2ccc(O)c(NS(C)(=O)=O)c2)c1 0.5

Also, COc1ccc([C@H](CCc2ccccc2Cl)NC[C@H](O)Cc2ccc(O)c(NS(C)(=O)=O)c2)cc1OC please. 8

====

Target: Beta-3 adrenergic receptor (Homo sapiens, UniProt P13945)
Assay: Intrinsic activity at human cloned adrenergic beta3 receptor expressed in CHO cells assessed as cAMP accumulation relative to isoproterenol
Format: functional, cell-based
Sequence (P13945 whole entry, looked up): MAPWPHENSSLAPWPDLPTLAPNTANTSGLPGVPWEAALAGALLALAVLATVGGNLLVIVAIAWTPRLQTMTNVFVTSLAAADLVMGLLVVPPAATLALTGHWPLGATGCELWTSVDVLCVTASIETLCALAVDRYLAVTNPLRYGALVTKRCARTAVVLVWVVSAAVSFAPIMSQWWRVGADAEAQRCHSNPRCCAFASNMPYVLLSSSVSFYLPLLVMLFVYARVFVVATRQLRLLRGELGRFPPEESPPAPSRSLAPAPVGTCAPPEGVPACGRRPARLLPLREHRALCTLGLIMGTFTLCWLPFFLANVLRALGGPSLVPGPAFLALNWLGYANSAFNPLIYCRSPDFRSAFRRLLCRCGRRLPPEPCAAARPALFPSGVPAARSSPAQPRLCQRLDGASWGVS
I'd appreciate it if you could supply Intrinsic activity values for the items below.
Write the answer as a number in %, unit excluded.

Tell me the measured Intrinsic activity of COc1ccc([C@H](Cc2ccccc2)NC[C@@H](O)Cc2ccc(O)c(NS(C)(=O)=O)c2)cc1OC , please. 62

Proceed to COc1ccc([C@H](CCc2ccccc2)NC[C@H](O)Cc2ccc(O)c(NS(C)(=O)=O)c2)cc1 93

Also, COc1ccc(CNCC(O)Cc2ccc(O)c(NS(C)(=O)=O)c2)cc1 (stereo not given) please. 50

Now the same for COc1ccc([C@H](CCc2ccc(Cl)cc2)NC[C@H](O)Cc2ccc(O)c(NS(C)(=O)=O)c2)cc1OC 89

Also, COc1ccc([C@@H](Cc2ccccc2)NC[C@@H](O)Cc2ccc(O)c(NS(C)(=O)=O)c2)cc1 please. 65
